- system: IL-17A(FLAG-Tagged): IL-17RA(His-Tagged) (Homo sapiens, UniProt Q16552, K93Q)
- Sequence (Q16552 with tags, fused parts or gaps K93Q): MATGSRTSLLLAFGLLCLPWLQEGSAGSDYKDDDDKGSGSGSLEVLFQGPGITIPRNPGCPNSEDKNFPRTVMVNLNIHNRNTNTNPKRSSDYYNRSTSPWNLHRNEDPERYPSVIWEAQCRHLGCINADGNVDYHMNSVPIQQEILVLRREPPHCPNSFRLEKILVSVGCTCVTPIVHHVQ
- test_name: IL-17A(FLAG-Tagged): IL-17RA(His-Tagged) Binding Disruption Eu-HTRF Assay
- test_settings: IL-17A/IL-17RA binding disruption, simple average if tested more than once
- Excerpt: IL-17A(FLAG-Tagged): IL-17RA(His-Tagged) Binding Disruption Eu-HTRF Assay An antibody directed against the FLAG tag of IL-17A (SEQ ID NO:1) is labeled with the HTRF donor chromophore (Europium-cryptate). […] The fluorescence-resonance energy transfer (FRET) depends on the vicinity of the donor chromophore to the acceptor, and interruption of the binding between the IL-17A and IL-17RA causes the reduction/loss of FRET. […]
pIC50: −log10 of the molar value.
Criterion: pIC50 meeting or surpassing 7. Met: fulfilled. Not met: not fulfilled.

Solved cases (3 shown):
O=C(CCC(F)(F)F)N[C@@H](c1cnn2cc([C@@H](NC(=O)c3conc3C3CCC3)C3CCC(F)(F)CC3)nc2c1)C1CC1; fulfilled
O=C(CC1CC(F)(F)C1)N[C@@H](c1cnn2cc([C@@H](NC(=O)c3nonc3C3CC3)C3CCC(F)(F)CC3)nc2c1)C1CC1; fulfilled
Cc1nonc1C(=O)N[C@H](c1cn2ncc([C@H](NC(=O)[C@@H]3CC[C@@H]3F)C3CC3)cc2n1)C1CCC(F)(F)CC1 (relative stereo); not fulfilled

Now take the following compound into account.
Query string: Given Cc1nonc1C(=O)N[C@H](c1cn2ncc([C@H](NC(=O)C[C@H]3C[C@H](F)C3)C3CC3)cc2n1)C1CCC(F)(F)CC1 (single isomer, unassigned) , state whether its pIC50 is at least 7.
Result string: fulfilled

----------
Below, each entry is listed with its recorded IC50.
- system: IL-17A(FLAG-Tagged): IL-17RA(His-Tagged) (Homo sapiens, UniProt Q16552, K93Q)
- test_name: IL-17A(FLAG-Tagged): IL-17RA(His-Tagged) Binding Disruption Eu-HTRF Assay
- test_settings: IL-17A/IL-17RA binding disruption, simple average if tested more than once
Unit nM implied. Number only.

O=C(CCC(F)(F)F)NC(c1cnn2cc([C@@H](NC(=O)c3nnsc3C3CC3)C3CCC(F)(F)CC3)nc2c1)C1CC1 (single isomer, unassigned); 34

Query string: # lookup: IC50 of Cc1nonc1C(=O)N[C@H](c1cn2ncc([C@H](NC(=O)COC3CC(F)(F)C3)C3CC3)cc2n1)C1CCC(F)(F)CC1
Result string: 200

Query string: Returns the measured IC50 for the input molecule. Input: CCOc1nocc1C(=O)N[C@H](c1cn2ncc([C@H](NC(=O)CCC(F)(F)F)C3CC3)cc2n1)C1CCC(F)(F)CC1
Result string: 190

----------
Parameter IC50: see the listing below.
- system: IL-17A(FLAG-Tagged): IL-17RA(His-Tagged) (Homo sapiens, UniProt Q16552, K93Q)
- test_name: IL-17A(FLAG-Tagged): IL-17RA(His-Tagged) Binding Disruption Eu-HTRF Assay
- test_settings: IL-17A/IL-17RA binding disruption, simple average if tested more than once
A number alone suffices; assume nM.

Before answering, review these 5 worked examples.
O=C(CCC(F)(F)F)NC(c1cnn2cc([C@@H](NC(=O)c3cnn(CCC(F)(F)F)c3)C3CCC(F)(F)CC3)nc2c1)C1CC1 (single isomer, unassigned) [Example 6]; 290
O=C(CCC(F)(F)F)NC(c1cnn2cc([C@@H](NC(=O)c3cnn(CC4CC4)n3)C3CCC(F)(F)CC3)nc2c1)C1CC1 (stereo in doubt); 71
O=C(CCC(F)(F)F)N[C@@H](c1cnn2cc([C@@H](NC(=O)[C@@H]3C(F)(F)C34CCC4)C3CCC(F)(F)CC3)nc2c1)C1CC1 (relative stereo); 140
CC(C)n1nccc1C(=O)N[C@H](c1cn2ncc(C(NC(=O)CC(C(F)(F)F)C(F)(F)F)C3CC3)cc2n1)C1CCC(F)(F)CC1 (single isomer, unassigned) [Example 11]; 690
CC(C)n1nccc1C(=O)N[C@H](c1cn2ncc([C@H](NC(=O)C[C@H](O)C(F)(F)F)C3CC3)cc2n1)C1CCC(F)(F)CC1 (relative stereo); 87

Query string: Data request, read-out IC50, for O=C(CCC(F)(F)F)N[C@@H](c1cnn2cc([C@@H](NC(=O)c3cn(CC4CC(F)(F)C4(F)F)nn3)C3CCC(F)(F)CC3)nc2c1)C1CC1 (stereo partly shown)
Result string: 370

Query string: Requested field: IC50. Item: COc1cc(C(=O)N[C@H](c2cn3ncc([C@H](NC(=O)CCC(F)(F)F)C4CC4)cc3n2)C2CCC(F)(F)CC2)cnn1
Result string: 1300

Query string: # get_value(readout='IC50', item= Cc1nonc1C(=O)N[C@H](c1cn2ncc(C(NC(=O)CC3CC(F)(F)C3)C3CCOCC3)cc2n1)C1CCC(F)(F)CC1 (single isomer, unassigned) )
Result string: 96

Query string: Value lookup for IC50; key = O=C(CCC(F)(F)F)N[C@@H](c1cnn2cc([C@@H](NC(=O)c3nnn(CC(F)F)c3C(F)(F)F)C3CCC(F)(F)CC3)nc2c1)C1CC1
Result string: 440

Query string: Which IC50 is listed for CCc1ccccc1C(=O)N[C@H](c1cn2ncc([C@H](NC(=O)CCC(F)(F)F)C3CC3)cc2n1)C1CCC(F)(F)CC1 ?
Result string: 350

Query string: What value of measured IC50 is listed for Cc1nsnc1C(=O)N[C@H](c1cn2ncc(C(NC(=O)CCC(F)(F)F)C3CC3)cc2n1)C1CCC(F)(F)CC1 (single isomer, unassigned) ?
Result string: 58

Query string: Could you share which IC50 value was measured for O=C(CCC(F)(F)F)NC(c1cnn2cc([C@@H](NC(=O)c3cnn(CC(F)(F)F)n3)C3CCC(F)(F)CC3)nc2c1)C1CC1 (single isomer, unassigned) ?
Result string: 100

Query string: Return reported IC50; argument: O=C(CC1CC(F)(F)C1)N[C@@H](c1cnn2cc([C@@H](NC(=O)[C@H]3C[C@@H]3C(F)(F)F)C3CCC(F)(F)CC3)nc2c1)C1CC1 (relative stereo)
Result string: 130

----------
- system: IL-17A(FLAG-Tagged): IL-17RA(His-Tagged) (Homo sapiens, UniProt Q16552, K93Q)
- test_name: IL-17A(FLAG-Tagged): IL-17RA(His-Tagged) Binding Disruption Eu-HTRF Assay
- test_settings: IL-17A/IL-17RA binding disruption, simple average if tested more than once
This section presents molecules with their documented IC50 values.
I only need the number, in µM, no unit after it.

// worked examples, IC50 included
O=C(CCC(F)(F)F)N[C@@H](c1cnn2cc([C@@H](NC(=O)c3cc(C(F)(F)F)ncn3)C3CCC(F)(F)CC3)nc2c1)C1CC1; 0.44
CC(C)n1nccc1C(=O)N[C@H](c1cn2ncc(C(NC(=O)CCC(F)(F)F)C3CCC3)cc2n1)C1CCC(F)(F)CC1 (single isomer, unassigned); 0.15
CC(C)n1nccc1C(=O)N[C@H](c1cn2ncc(C(NC(=O)CC3(C(F)(F)F)CC3)C3(C#N)CC3)cc2n1)C1CCC(F)(F)CC1 (single isomer, unassigned) [Example 428]; 0.37
CC(C(F)F)n1ncnc1C(=O)N[C@H](c1cn2ncc([C@H](NC(=O)CCC(F)(F)F)C3CC3)cc2n1)C1CCC(F)(F)CC1 (some centres unmarked); 0.19

Note: attention shifts to another entry.
Query string: # IC50 lookup, item Cc1nonc1C(=O)N[C@H](c1cn2ncc(C(NC(=O)CC3CC(F)(F)C3)C3(C#N)CC3)cc2n1)C1CCC(F)(F)CC1 (single isomer, unassigned)
Result string: 0.078

----------
- system: IL-17A(FLAG-Tagged): IL-17RA(His-Tagged) (Homo sapiens, UniProt Q16552, K93Q)
- test_name: IL-17A(FLAG-Tagged): IL-17RA(His-Tagged) Binding Disruption Eu-HTRF Assay
- test_settings: IL-17A/IL-17RA binding disruption, simple average if tested more than once
Label YES when IC50 < 0.1 µM; otherwise NO.

Query string: Does Cc1noc(C)c1C(=O)N[C@H](c1cn2ncc([C@H](NC(=O)CCC(F)(F)F)C3CC3)cc2n1)C1CCC(F)(F)CC1 have IC50 strictly under 0.1 µM?
Result string: NO

Query string: Say whether its IC50 is strictly beneath 0.1 µM. Entry: O=C(CCC(F)(F)F)N[C@@H](c1cnn2cc([C@@H](NC(=O)[C@H]3C[C@@H]3F)C3CCC(F)(F)CC3)nc2c1)C1CC1
Result string: NO

Query string: is_below(IC50, 0.1 µM) for Cc1nonc1C(=O)N[C@H](c1cn2ncc([C@H](NC(=O)CC3(C(F)(F)F)CC3)C3CC3)cc2n1)C1CCC(F)(F)CC1 ?
Result string: NO

Query string: Dear reviewer, please state whether O=C(CCC(F)(F)F)N[C@@H](c1cnn2cc([C@@H](NC(=O)c3cccc(OCC(F)F)c3)C3CCC(F)(F)CC3)nc2c1)C1CC1 has IC50 strictly beneath 0.1 µM.
Result string: YES

Query string: Consider the compound O=C(CCC(F)(F)F)N[C@@H](c1cnn2cc([C@@H](NC(=O)c3ccccc3Cl)C3CCC(F)(F)CC3)nc2c1)C1CC1 . Is its IC50 strictly less than 0.1 µM?
Result string: NO

Query string: hey, is IC50 for O=C(CCC(F)(F)F)N[C@@H](c1cnn2cc([C@@H](NC(=O)c3cc(C(F)(F)F)ccn3)C3CCC(F)(F)CC3)nc2c1)C1CC1 lower than 0.1 µM or not?
Result string: NO
